experiment: logP by HPLC on reversed-phase column (EEC Directive 79/831 Annex V.A8); type: physicochemical; settings: reversed-phase HPLC column (C18); HPLC, C18, 40° C., 0.1% aqueous formic acid and acetonitrile; read-out: log P
Recorded chromatographic logP for the following compounds
Answer using only a numeral; do not append any unit.

| compound | chromatographic logP |
| --- | --- |
| CCN(C)/C=N/c1cc(C)c(CCc2ccccc2F)cc1C [Compound 44] | 2.23 |

Now look at this entry.
Prompt: Return the recorded chromatographic logP value; entry: CCN(C)/C=N/c1cc(C)c(OCc2cccc(C(F)(F)F)c2)cc1C [Compound 9]
Response: 2.24

====

Recorded log P for the following molecules
assay: logP by HPLC on reversed-phase column (EEC Directive 79/831 Annex V.A8); type: physicochemical; details: HPLC, C18, 40° C., 0.1% aqueous formic acid and acetonitrile
Answer using only a numeral; do not append any unit.

Prompt: Return the recorded log P value; entry: Cc1cc(OCc2cc(C(F)(F)F)ccc2Cl)c(C)cc1N=CN1CCCCC1
Response: 2.58

Prompt: Return the recorded log P value; entry: CCN(C)C=Nc1cc(C)c(OCc2cccc(Cl)c2)cc1C
Response: 2.13

Prompt: Return the recorded log P value; entry: CCN(C)C=Nc1cc(C)c(OCc2ccc(SC(F)(F)F)cc2)cc1C
Response: 2.61

Prompt: Return the recorded log P value; entry: Cc1cc(OC(C)c2cccc(Cl)c2)c(C)cc1N=CN1CCCCC1 (racemic)
Response: 2.36

Prompt: Return the recorded log P value; entry: Cc1cc(OCc2ccc(OC(F)(F)F)cc2)c(C)cc1N=CN1CCCCC1
Response: 2.42

====

Test: logP by HPLC on reversed-phase column (EEC Directive 79/831 Annex V.A8)
Assay type: physicochemical
Conditions: HPLC, C18, 40° C., 0.1% aqueous formic acid and acetonitrile
Protocol: Temperature: 40° C.; Mobile phases: 0.1% aqueous formic acid and acetonitrile; linear gradient from 10% acetonitrile to 90% acetonitrile. Calibration was carried out using unbranched alkan-2-ones (comprising 3 to 16 carbon atoms) with known logP values (determination of the logP values by the retention times using linear interpolation between two successive alkanones).
observation_type: log P
Answer using only a numeral; do not append any unit.

# annotated cases, reported log P shown
| compound | observation_type | number |
| --- | --- | --- |
| CCN(C)C=Nc1cc(C)c(OCc2ccccc2Cl)cc1C | log P | 2.08 |
| CCN(C)C=Nc1cc(C)c(OCc2ccc3c(c2)CCCC3)cc1C | log P | 2.55 |
| CCN(C)C=Nc1cc(C)c(OCc2c(Cl)cccc2Cl)cc1C | log P | 2.05 |
| Cc1cc(OCc2cc(Cl)cc(C(F)(F)F)c2)c(C)cc1N=CN1CCCCC1 | log P | 2.61 |
| CCN(C)C=Nc1cc(C)c(OCc2cccc(OC)c2)cc1C | log P | 1.97 |

Prompt: Return the recorded log P value; entry: CCN(C)C=Nc1cc(C)c(OCc2cccc3nsnc23)cc1C
Response: 1.92

Prompt: Return the recorded log P value; entry: CCN(C)C=Nc1cc(C)c(CCc2ccccc2Cl)cc1C
Response: 2.26

Prompt: Return the recorded log P value; entry: C=Cc1cccc(COc2cc(C)c(N=CN(C)CC)cc2C)c1
Response: 2.16

Prompt: Return the recorded log P value; entry: CCN(C)C=Nc1cc(C)c(OCc2ccc(Oc3ccc(Cl)cc3)cc2)cc1C
Response: 2.8

Prompt: Return the recorded log P value; entry: CCN(C)C=Nc1cc(C)c(OCc2cccc3ccccc23)cc1C
Response: 2.45

Prompt: Return the recorded log P value; entry: CCN(C)C=Nc1cc(C)c(OCc2ccccc2I)cc1C
Response: 2.29

Prompt: Return the recorded log P value; entry: CCN(C)C=Nc1cc(C)c(OCc2ccc(C(C)C)cc2)cc1C
Response: 2.51

Source of measurements: patent US7855309B2
